Hey, just so you know, these numbers are from the supplement of paper PMC11208160.

- ASSAY: recombinant UMI read abundance after kanamycin selection (control-corrected) (log10(CPM+1)); higher = more efficient recombination; extreme values may be limits of the assay; sequences stand for … in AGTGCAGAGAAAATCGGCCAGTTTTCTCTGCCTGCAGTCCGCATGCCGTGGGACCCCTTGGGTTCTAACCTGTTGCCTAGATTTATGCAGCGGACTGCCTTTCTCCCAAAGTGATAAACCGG…AGGTTGGTTTCACT; site = the 11-nt donor;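 note: IS621 bridge recombinase in Escherichia coli cells against a fixed T5 target plasmid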
VALUE_KIND: recombinant UMI read abundance (log10)
Numbers only.

// below: answered sequences
Endpoint output: recombinant UMI read abundance (log10) of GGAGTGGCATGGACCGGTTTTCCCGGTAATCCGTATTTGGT (site GTAGTGGCTAC) . Value?
0.294

Endpoint output: recombinant UMI read abundance (log10) of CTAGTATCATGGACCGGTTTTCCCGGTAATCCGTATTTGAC (site ATAGTATCTGG) . Value?
0.298

Endpoint output: recombinant UMI read abundance (log10) of GAGTTCGCATGGACCGGTTTTCCCGGTAATCCGTATTTGGA (site GAGTTCGCTTC) . Value?
1.08

Endpoint output: recombinant UMI read abundance (log10) of CAGTGCTCATGGACCGGTTTTCCCGGTAATCCGTATTTGAA (site CACTGCTCTTT) . Value?
0.28

Endpoint output: recombinant UMI read abundance (log10) of AAGCACGCATGGACCGGTTTTCCCGGTAATCCGTATTTGCG (site AAGCACGCTCC) . Value?
0.223

Endpoint output: recombinant UMI read abundance (log10) of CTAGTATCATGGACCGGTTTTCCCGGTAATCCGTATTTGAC (site CTAGTATCTTG) . Value?
0.0198

Please go through the list and note recombinant UMI read abundance (log10) for each sequence.
1. GATCCGTCATGGACCGGTTTTCCCGGTAATCCGTATTTGCG (site GATCCGTCTCG)
2. GAAGGGCCATGGACCGGTTTTCCCGGTAATCCGTATTTGTG (site GAAGGGCCTCA)
3. CTACTAACATGGACCGGTTTTCCCGGTAATCCGTATTTGGG (site CTACTAACTTC)
4. CAATTCGCATGGACCGGTTTTCCCGGTAATCCGTATTTGCT (site CAATTCACTAG)
5. TACTTGGCATGGACCGGTTTTCCCGGTAATCCGTATTTGTG (site TAGTTGGCTCA)
6. GAAAGCTCATGGACCGGTTTTCCCGGTAATCCGTATTTGCC (site GAAAGCTCTGG)

0.274
0.0149
0.0179
1.08
0.017
2.75
